- Tested on: velvetleaf
- Assay: Test Example 2: soil application on the day after sowing, growth inhibition rate, velvetleaf
- Format: in vivo, Abutilon theophrasti MEDIC.
- Experimental Parameters: Abutilon theophrasti, 250 g/ha active ingredient, observed on 19th to 24th day
Recorded inhibition at 250 g/ha by entry
Note: state the figure and append the unit.

CCSC(=O)Oc1c(C(=O)c2ccc(S(C)(=O)=O)c(OCCOC)c2C)cnn1CC [Compound No. 16] ... 0%
CCSC(=O)Oc1c(C(=O)c2ccc(S(C)(=O)=O)c(C(=O)OC)c2C)cnn1CC [Compound No. 2] ... 60%
CCSC(=O)Oc1c(C(=O)c2ccc(S(C)(=O)=O)c(OC)c2C)cnn1C [Compound No. 35] ... 20%
CCSC(=O)Oc1c(C(=O)c2ccc(S(C)(=O)=O)c(OCCOC)c2C)cnn1C [Compound No. 55] ... 95%

Problem: Which inhibition at 250 g/ha is listed for CCSC(=O)Oc1c(C(=O)c2ccc(S(C)(=O)=O)c(OC(F)F)c2C)cnn1C [Compound No. 38] ?
Result: 20%

Problem: Which inhibition at 250 g/ha value is on record for CCSC(=O)Oc1c(C(=O)c2ccc(S(C)(=O)=O)c(C3=NOCC3)c2C)cnn1C [Compound No. 39] ?
Result: 60%

Problem: Any idea what its inhibition at 250 g/ha is? The molecule is CCSC(=O)Oc1c(C(=O)c2ccc(S(C)(=O)=O)c(OCC(OC)OC)c2C)cnn1C [Compound No. 209]
Result: 50%

Problem: Record request: inhibition at 250 g/ha value, item CCSC(=O)Oc1c(C(=O)c2ccc(S(C)(=O)=O)c(C(=O)OC)c2C)cnn1C [Compound No. 1]
Result: 60%
